The reader will find reported growth inhibition values listed item by item below.
Assay: NCI Yeast Anticancer Drug Screen. Data for the mec2-1 strain (AID 157)
Conditions: S. cerevisiae mec2-1 strain, at 50.0 µM, active compounds read high
This is part of a sample that, as a whole, favours compounds with a hit. Of some 79,000 tested, about 15% had one in any assay.
Form entry: value (%) — number only.

Examples with their reported growth inhibition follow.
[[record]]
compound = "N#CC(N)c1ccccc1 (stereo unspecified)"
quantity_name = "growth inhibition"
readout_unit = "%"
experimental_value = -14.9

[[record]]
compound = "Cc1cc(NC(=O)Oc2ccc([N+](=O)[O-])cc2)ccc1S(=O)(=O)F"
quantity_name = "growth inhibition"
readout_unit = "%"
experimental_value = 39.4

[[record]]
compound = "N.N.N.N.N.N.[Br-].[Co+3]"
quantity_name = "growth inhibition"
readout_unit = "%"
experimental_value = 7.7

[[record]]
compound = "CN(C)P1(=O)OCC(C(C)(C)C)CN1c1ccccc1 (stereo unspecified)"
quantity_name = "growth inhibition"
readout_unit = "%"
experimental_value = 2.95

[[record]]
compound = "COC[C@H]1OC(=O)c2coc3c2[C@@]1(C)C1=C(C3=O)[C@@H]2CCC(=O)[C@@]2(C)C[C@H]1OC(C)=O"
quantity_name = "growth inhibition"
readout_unit = "%"
experimental_value = 93.3


Quick check: growth inhibition of NC(N)=NN(N=O)C1CCCCC1 ?
5.05

Try O=C(/C=C/c1ccccc1)CCC1C(=O)NC(=S)NC1=O next.
3.35

Now try N/C(=N\N=C\c1ccc(O)cc1O)N[N+](=O)[O-] .
-0.85

Queued: CCCC(=O)[O-].N.N.N.N.N.[Co+3].[O-][Cl+3]([O-])([O-])[O-]
-2.3

Now the compound O=C/C=C/c1ccccc1.[Fe+2].[c-]1[c-][c-][cH-][c-]1.[c-]1[c-][c-][cH-][c-]1
-48.2

And then CC(=O)Nc1ccc2c(c1)C(=O)c1cc(NC(C)=O)ccc1-2 , what is it?
-10.1

* * *

Experiment: NCI Yeast Anticancer Drug Screen. Data for the mlh1 rad18 strain (AID 175)
Conditions: S. cerevisiae mlh1 rad18 strain growth inhibition; at 50.0 µM; active compounds read high
The panel holds about 79,000 compounds, 15% with a hit somewhere; the sample as a whole holds those more often.
The following molecules are shown together with reported growth inhibition values.
Please respond with the number in % and leave the unit unwritten.

I have this molecule here, C1CCN2COCC2C1 (configuration not stated) , and I need its recorded growth inhibition.
22.4

Likewise for O=[N+]([O-])c1ccc(-n2nc3ccc4c(no[n+]4[O-])c3n2)cc1 ?
-25.6

* * *

Assay: NCI Yeast Anticancer Drug Screen. Data for the bub3 strain (AID 167)
Details: S. cerevisiae bub3 mutant strain, at 50.0 µM, active compounds read high
The panel holds about 79,000 compounds, 15% with a hit somewhere; the sample as a whole holds those more often.
quantity-name: growth inhibition (%)
// return numeric value only (unit: %, not printed)

See these solved cases before continuing.
[[record]]
compound = "O=C1C(=C(O)c2ccccc2)C(=O)c2ccccc21"
quantity_name = "growth inhibition"
experimental_value = -1.8

[[record]]
compound = "C=C(Br)C[N+]12CN3CN(CN(C3)C1)C2"
quantity_name = "growth inhibition"
experimental_value = 2.7

[[record]]
compound = "CC1CNCCN1c1ccc(Cl)cc1 (configuration not stated)"
quantity_name = "growth inhibition"
experimental_value = 22.8

[[record]]
compound = "O=N[O-].O=N[O-].[NH2-].[NH2-].[NH2-].[NH2-].[Ni]"
quantity_name = "growth inhibition"
experimental_value = -14.8

[[record]]
compound = "Oc1cc(N2CC2)c(O)cc1N1CC1"
quantity_name = "growth inhibition"
experimental_value = -1.75


Please report the recorded growth inhibition for O=C([O-])C(=O)[O-].[Co+3].[NH2-].[NH2-].[NH2-].[NH2-].[O-][Cl+3]([O-])([O-])O .
18.1

// same read-out, input: CC(=O)NC(CS)C(=O)[O-].CC(=O)NC(CS)C(=O)[O-].N.N.[Pt+4] (configuration not stated)
14.4

Field entry: O=NN1CCCS1(=O)=O
3.95

Another compound to check: CN(C)C(=S)Oc1c(S(=O)(=O)F)ccc(Cl)c1Cl
95.2

Try this compound too: O=c1[nH]c(=O)[nH]c(=O)[nH]1
1.1
